Molecular target: HLA-B*51:01
Assay: IEDB peptide-MHC binding, purified MHC/competitive/radioactivity; filed as Kd, often an IC50 or EC50 that approximates it; bounds were set here for any values at or beyond the usual limits of such assays
Settings: source organism: Dengue virus 3 Martinique/1243/1999
assay_endpoint: Kd (µM)

1. TPTGTVMDI	7.24

---

Target: HLA-B*15:42
Assay: IEDB peptide-MHC binding, purified MHC/competitive/fluorescence; filed as Kd, often an IC50 or EC50 that approximates it; bounds were set here for any values at or beyond the usual limits of such assays
Details: source organism: Mycobacterium tuberculosis C
pKd: −log10 of the molar value.
pKd for assorted sequences
assay_endpoint: pKd

1) MVRQMRAAL	≤ 5.30
2) RARRHLAAL	≤ 5.30
3) RPAGARAAF	≤ 5.30

---

Molecular target: HLA-B*40:02
Test: IEDB peptide-MHC binding, purified MHC/competitive/radioactivity; filed as Kd, often an IC50 or EC50 that approximates it; bounds were set here for any values at or beyond the usual limits of such assays
Conditions: source organism: Mammarenavirus brazilense
Each item that follows carries a reported Kd.
assay_endpoint: Kd (nM)

1) ADMSKLISL	287
2) GDEALRGFL	826
3) QDPLLGTLS	12600

---

Target: HLA-A*02:01
Assay: IEDB peptide-MHC binding, purified MHC/competitive/fluorescence; bounds were set here for any values at or beyond the usual limits of such assays
Settings: source organism: Sudan ebolavirus
pIC50: −log10 of the molar value.
assay_endpoint: pIC50

1. LILAKPKET	4.97
2. ATSYLEYEI	5.30
3. HTPQFLFQL	5.56
4. LVPKNSPGM	4.75

---

Biological target: HLA-C*03:03
Assay: IEDB peptide-MHC binding, purified MHC/direct/fluorescence; filed as Kd, often an IC50 or EC50 that approximates it; bounds were set here for any values at or beyond the usual limits of such assays
Conditions: source organism: Bacillus anthracis str. A0488
assay_endpoint: Kd

1) ITLPISASL	≤ 1 nM

---

Target: HLA-A*24:03
Assay: IEDB peptide-MHC binding, purified MHC/direct/fluorescence; filed as Kd, often an IC50 or EC50 that approximates it; bounds were set here for any values at or beyond the usual limits of such assays
Conditions: source organism: Salmonella enterica subsp. enterica serovar Typhimurium
pKd: −log10 of the molar value.
assay_endpoint: pKd

1. FMIDWILDA	≤ 4.70

---

Target: HLA-A*31:01
Experiment: IEDB peptide-MHC binding, purified MHC/competitive/radioactivity; filed as Kd, often an IC50 or EC50 that approximates it; bounds were set here for any values at or beyond the usual limits of such assays
Settings: source organism: Mammarenavirus whitewaterense
assay_endpoint: Kd (µM)

1) SRLFEDLVWK	8.59

---

Molecular target: HLA-A*68:02
Test: IEDB peptide-MHC binding, purified MHC/competitive/fluorescence; filed as Kd, often an IC50 or EC50 that approximates it; bounds were set here for any values at or beyond the usual limits of such assays
Details: source organism: Influenza A virus (A/Fort Monmouth/1/1947-mouse adapted(H1N1))
assay_endpoint: Kd (nM)

1) SYLIRALTL	1190

---

Target: HLA-B*18:01
Assay: IEDB peptide-MHC binding, purified MHC/competitive/fluorescence; filed as Kd, often an IC50 or EC50 that approximates it; bounds were set here for any values at or beyond the usual limits of such assays
Conditions: source organism: Vibrio vulnificus CMCP6
assay_endpoint: Kd

1. WLAGFEPSE	≥ 20 µM
